// data source = the supplement of paper PMC10567573

Exercise: for every item that follows, state its recorded protein stability index.
B1: ZNF449 (parent)
chain: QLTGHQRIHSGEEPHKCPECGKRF

variants of: B1; experiment: protein stability index of a GFP-peptide fusion (GPS, HEK-293T) (PSI 1-6); higher = more stable; details: c terminus: a fixed tail appended;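 further: lentivirally expressed fusions sorted by FACS into six bins by GFP to DsRed ratio, PSI derived from sequencing read proportions per bin multiplied by bin number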
Numbers only.

Reference set, count: 3
H9V ... 4.48
P14C ... 4.22
H15Y ... 4.3

Below is a list of variants. For each, state its recorded protein stability index.
1. H9T
2. G4T
3. G4K
4. E13R
5. H15M
6. R7S

[3.71, 4.43, 3.48, 3.54, 3.68, 4.83]

For every item below, please supply its protein stability index.
1. G4W
2. E12G
3. R7P

[2.78, 3.99, 4.44]

# per-item lookup of protein stability index; items listed below
1. E19V
2. E19I
3. E19K
4. G11E

[4.53, 3.37, 3.33, 4.75]
